Collected melting point values appear next to each entry.

[
  {
    "molecule": "CC(C)(C)OC(=O)NCCNC(=O)c1cscn1",
    "melting point": "112 to 118 °C"
  },
  {
    "molecule": "CCc1cc(-n2cncn2)ncn1",
    "melting point": "75 to 76 °C"
  },
  {
    "molecule": "O=C(Cc1ccccc1)Nc1ccnc(NC(=O)NCc2ccccn2)c1",
    "melting point": "219 to 220 °C"
  },
  {
    "molecule": "N#CCCNC(=O)c1cccc(-c2cccc3nn(Cc4ccc(F)c(F)c4)cc23)c1",
    "melting point": "191 to 192 °C"
  },
  {
    "molecule": "CC(C)(C)OC(=O)N1CCC(CN2C(=O)C3(COc4cc5c(cc43)C(C)(C)CO5)c3ccccc32)CC1 (configuration not stated)",
    "melting point": "65 to 75 °C"
  },
  {
    "molecule": "Cc1cccc2c1C(=O)C(CO)(CO)CS2",
    "melting point": "138 to 142 °C"
  },
  {
    "molecule": "COC(=O)c1cc(-c2ccc3c(c2)CCO3)n[nH]c1=O",
    "melting point": "192 to 200 °C"
  }
]

---

Collected melting point values appear next to each entry.

[
  {
    "compound": "CCOC1(OCCc2nc(C(C)C)c(Sc3cc(Cl)cc(Cl)c3)n2C)CCCCCC1",
    "melting point": "53 to 54 °C"
  },
  {
    "compound": "CCCCCCCCCC(=O)OCC#Cc1ncn2c1CN(C)C(=O)c1c(Cl)cccc1-2",
    "melting point": "70 to 72 °C"
  },
  {
    "compound": "CN(CCN1CCN(c2cccc(C(F)(F)F)n2)CC1)C(=O)c1ccc(F)cc1",
    "melting point": "144 °C"
  },
  {
    "compound": "COc1cccc(OC)c1-c1ccc(C[C@H](NC(=O)c2c(Cl)cccc2Cl)C(=O)O)cc1NC(C)=O",
    "melting point": "142 to 144 °C"
  },
  {
    "compound": "Cc1cc(C)cc(Oc2c(C(C)C)c(=O)[nH]c(=O)n2CC2CCCC2)c1",
    "melting point": "157 to 158 °C"
  },
  {
    "compound": "C=Cc1ccc2c(c1)CCN2C(=O)OC(C)(C)C",
    "melting point": "85.5 to 88.6 °C"
  },
  {
    "compound": "Cc1ccc(NC(=O)c2c(C)cccc2N)cc1",
    "melting point": "217 to 220 °C"
  },
  {
    "compound": "COc1ccc(-n2c(=O)c(-c3ccccc3)nc3ccccc32)cc1",
    "melting point": "199 to 202 °C"
  },
  {
    "compound": "COc1cc(C)c2c(Cl)c(OC)cc([N+](=O)[O-])c2n1",
    "melting point": "199 to 200 °C"
  },
  {
    "compound": "COC(=O)CN(NC(N)=O)c1ccc(Oc2ccccc2)cc1",
    "melting point": "110 to 113 °C"
  },
  {
    "compound": "O=C(Nc1nc[nH]n1)c1ccc(-c2ccc3nnn(Cc4ccc5ncccc5c4)c3n2)cc1F",
    "melting point": "265 to 267 °C"
  },
  {
    "compound": "Cc1n[nH]c(=O)n1N=Cc1cccnc1",
    "melting point": "208 to 210 °C"
  },
  {
    "compound": "CS(=O)(=O)OCc1cc(-c2ccc3c(c2)CCO3)nn(Cc2ccccc2Cl)c1=O",
    "melting point": "118 to 119 °C"
  },
  {
    "compound": "Cc1cc(-n2cncn2)ccc1N",
    "melting point": "122 to 125 °C"
  },
  {
    "compound": "CCOC(=O)C(=O)C1C(=O)c2c(OC)ccc3c2C1CCO3 (stereo unspecified)",
    "melting point": "104 to 106 °C"
  },
  {
    "compound": "COC1=C(OC)C(=O)C2=C(CC(CCCCCCCCN3CCN(Cc4ccccc4)CC3)(c3ccccc3)C2)C1=O",
    "melting point": "78 to 80 °C"
  },
  {
    "compound": "C#CCN=C(NC#N)SC",
    "melting point": "160 to 164 °C"
  },
  {
    "compound": "CCOC(=O)Cc1c(C#N)cnc2c(NC(=O)c3c(Cl)cccc3Cl)cccc12",
    "melting point": "171 to 173 °C"
  },
  {
    "compound": "Cc1noc(-c2ncn3c2[C@@H]2CCCN2C(=O)c2c(Br)cccc2-3)n1",
    "melting point": "237 to 238 °C"
  },
  {
    "compound": "CCOc1c(CN2CCCCC2)c2c(c3c1OC(C)(C)C3)C(c1cccc(NC(=O)c3ccccc3C(=O)O)c1)=NC(C)(C)C2",
    "melting point": "155 to 157 °C"
  },
  {
    "compound": "O=C(O)c1ccc(CNC(=O)C(CS)Cc2ccccc2)cc1 (stereo unspecified)",
    "melting point": "156 to 159 °C"
  }
]

---

Collected melting point values appear next to each entry.

[
  {
    "molecule": "NC(=O)C1C(CSSCC2C(C(N)=O)N(Cc3ccccc3)C(=O)N2Cc2ccccc2)N(Cc2ccccc2)C(=O)N1Cc1ccccc1 (stereo not drawn)",
    "melting point": "208 to 211 °C"
  },
  {
    "molecule": "Cc1ccc(C2(c3ccc(C)cc3)OC(=O)N3CCN(C(=O)Nc4ccc(F)cc4F)CC32)cc1 (stereo not drawn)",
    "melting point": "120 to 122 °C"
  },
  {
    "molecule": "Cc1ccc(CN2CCSC2=O)cc1",
    "melting point": "49 to 50 °C"
  },
  {
    "molecule": "O=C(O)CCCCCCCCCCCCCCCOCc1ccccc1",
    "melting point": "56 to 59 °C"
  },
  {
    "molecule": "O=C(Nc1ccc2c(c1)OCCO2)c1ccc(-c2cccs2)cc1",
    "melting point": "192 to 195 °C"
  },
  {
    "molecule": "Cc1n[nH]c2c1C(=O)CC(C)(C)C2",
    "melting point": "103 to 104 °C"
  },
  {
    "molecule": "Cc1nc2cc(S(=O)(=O)n3c(CCC(=O)O)cc4cc(C(F)(F)F)ccc43)ccc2s1",
    "melting point": "235 to 236 °C"
  },
  {
    "molecule": "CCCCN1CSC(=S)N(Cc2ccncc2)C1",
    "melting point": "75 to 80 °C"
  },
  {
    "molecule": "CCc1c2c(c(CC)c3ccc(OC)cc13)-c1ccc(OC)cc1C2",
    "melting point": "155 to 157 °C"
  },
  {
    "molecule": "CC(C)(C)OC(=O)c1nc(-c2ccc(Cl)cc2Cl)n(-c2ccc(Cl)cc2)c1Br",
    "melting point": "198 to 200 °C"
  },
  {
    "molecule": "CCn1cc(C2CCC3(CC2)OCCO3)c2cc(C#N)ccc21",
    "melting point": "124 to 126 °C"
  },
  {
    "molecule": "COc1cccc(C2C(C(=O)c3ccc(C)cc3)=C(O)C(=O)N2c2ccc(C)nn2)c1 (stereo not drawn)",
    "melting point": "265 °C"
  },
  {
    "molecule": "CC(C)c1nc(C#N)c(C#N)[nH]1",
    "melting point": "146 to 149 °C"
  }
]

---

[
  {
    "molecule": "N#CC(C#N)=C1Sc2nc3ccc([N+](=O)[O-])cc3nc2S1",
    "melting point": "220 to 222 °C"
  },
  {
    "molecule": "CCOCCn1c(C)c(C2(c3ccc(N(CC)CC)cc3CC)OC(=O)c3ccccc32)c2ccccc21 (configuration not stated)",
    "melting point": "156 to 158 °C"
  },
  {
    "molecule": "O=Cc1ccc(/C=C/c2ccncc2)cc1",
    "melting point": "116 to 117 °C"
  },
  {
    "molecule": "CCCCOc1cc(/C=C/C(=O)O)n(Cc2ccc(C(F)(F)F)cc2Cl)n1",
    "melting point": "172 to 174 °C"
  },
  {
    "molecule": "Cc1cnc2[nH]cc(/C=C3\\N=C(N4CCN(c5ccccc5)CC4)NC3=O)c2c1",
    "melting point": "331 to 332 °C"
  },
  {
    "molecule": "COC(=O)c1ccc(OC)cc1Oc1cc(Cl)ccc1[N+](=O)[O-]",
    "melting point": "121 to 123 °C"
  },
  {
    "molecule": "CNC(=O)Cc1c(-c2ccc(C)cc2)nc2n(C)c3ccccc3n12",
    "melting point": "251 to 252 °C"
  },
  {
    "molecule": "N#CN=C(NCCO)NCCCSc1nccc(NC(N)=NCC(F)(F)F)n1",
    "melting point": "114 to 116 °C"
  },
  {
    "molecule": "COc1ccc(C2SC(=O)NC2=O)cc1C(=O)NCc1ccc(C(F)(F)F)cc1 (configuration not stated)",
    "melting point": "168 to 169 °C"
  },
  {
    "molecule": "Cc1cc(NS(=O)(=O)c2ccc(S(C)(=O)=O)cc2)cc(C)c1S(=O)(=O)C[N+](=O)[O-]",
    "melting point": "192 to 194 °C"
  },
  {
    "molecule": "CNc1nc(-c2ccc(Br)cc2)cs1",
    "melting point": "147 °C"
  },
  {
    "molecule": "O=C(O)c1ccc(N2CCSCC2)cc1",
    "melting point": "233 to 235 °C"
  },
  {
    "molecule": "CCOc1cc2ncnc(Cl)c2cc1OCC",
    "melting point": "141 to 143 °C"
  },
  {
    "molecule": "CCOc1ccc(-c2nc3n(c2-c2ccc(OCC)cc2)CCS3)cc1",
    "melting point": "214 to 215 °C"
  },
  {
    "molecule": "Clc1ccc2c(c1Cl)C=NCC2",
    "melting point": "196 to 200 °C"
  },
  {
    "molecule": "CCCCc1oc2ccc(NS(C)(=O)=O)cc2c1C(=O)c1ccc(OCCN(CCCC)CCCC)cc1",
    "melting point": "86 °C"
  },
  {
    "molecule": "CN(C)c1nccc(-c2cccnc2)n1",
    "melting point": "230 to 241 °C"
  },
  {
    "molecule": "COc1cc(C)c(C=CC(C)=CC=CC(C)=CCO)c(C)c1C",
    "melting point": "128 to 130 °C"
  },
  {
    "molecule": "N#CC1(c2ccc(NC(=O)c3ccc4c(c3)OCCO4)cc2)CCCC1",
    "melting point": "164 to 167 °C"
  },
  {
    "molecule": "O=C1N(Cc2ncccc2C(F)(F)F)c2ccccc2C12COc1ccc3c(c12)OCCO3 (configuration not stated)",
    "melting point": "245 to 247 °C"
  },
  {
    "molecule": "CC(=O)O/N=C1\\CCc2ccccc2C1=Cc1ccc(S(C)(=O)=O)cc1",
    "melting point": "70 to 73 °C"
  },
  {
    "molecule": "O=C(O)C(=O)c1ccc(OCCOc2ccc3cc4ccccc4cc3c2)cc1",
    "melting point": "213 to 214 °C"
  }
]
